- METHOD: qHTS assay to identify small molecule HDAC inhibitors - cell viability counter screen (AID 1259365); note: nearly all actives have a fitted effect of over 50% in size
- MEASUREMENT_CONDITIONS: HCT-116 viability, CellTiter-Glo ATP luminescence, 2 h; series mostly up to 92.4 µM
Active and inactive are the calls of the source. Calls come from the whole dose curve; as a rule, active = well fitted cell-killing curve with a large enough effect in the repeat runs; inconclusive = weak or mixed curves, or effect the other way; inactive = flat fitted curve, though single readings scatter.
Field 'call' accepts active, inactive

Incoming: For CC1(C)C(/C=C(\Cl)C(F)(F)F)C1C(=O)OC(C#N)c1cccc(Oc2ccccc2)c1 (stereo not given) , which call appears in the assay record?
Outgoing: inactive

Incoming: Hello, I am checking results. What call was entered for COP(=S)(OC)Oc1cc(Cl)c(Br)cc1Cl ?
Outgoing: inactive

Incoming: I'd appreciate the recorded outcome for ClC1=C(Cl)[C@]2(Cl)[C@@H]3[C@@H]4C[C@@H]([C@H]5O[C@@H]45)[C@@H]3[C@@]1(Cl)C2(Cl)Cl from this test.
Outgoing: inactive

Incoming: # fetch the recorded call for CCOc1cc(C(C)(C)C)ccc1C1COC(c2c(F)cccc2F)=N1 (stereo not given) here
Outgoing: inactive

Incoming: Can you look up the reported call for BrC(Br)C(Br)(Br)Br for me?
Outgoing: inactive

Incoming: Can you look up the reported call for C[C@]12CC[C@H]3[C@@H](CCC4=CC(=O)CC[C@@]43C)[C@@H]1CC[C@@H]2O for me?
Outgoing: inactive

Incoming: Answer briefly: the call reported for Nc1ccc(Cc2ccc(N)c(Cl)c2)cc1Cl in this assay.
Outgoing: inactive

Incoming: Could you check what this test reported for CC(C)CC(C)(c1ccc(O)cc1)c1ccc(O)cc1 ?
Outgoing: inactive

Incoming: Which result was noted for this molecule in the test: CC1(C)CN=C(NN=C(/C=C/c2ccc(C(F)(F)F)cc2)/C=C/c2ccc(C(F)(F)F)cc2)NC1
Outgoing: inactive

Incoming: Just curious, what result did N#Cc1ccccc1Cl get here?
Outgoing: inactive

Further cases:
Incoming: Could you check what this test reported for CC(C)OC(=O)C(O)(c1ccc(Cl)cc1)c1ccc(Cl)cc1 ?
Outgoing: inactive

Incoming: Tell me the assay call for CCCCCCCCCCCCBr please.
Outgoing: inactive

Incoming: In this assay, the call recorded for O=[N+]([O-])c1ccc2ccc3cccc4ccc1c2c34 was what?
Outgoing: inactive

Incoming: Please indicate how the test categorized O=[N+]([O-])c1c2ccccc2cc2ccccc12 .
Outgoing: inactive

Incoming: What is the recorded call for this molecule in the test? Cc1ccc(C(=O)Cl)cc1
Outgoing: inactive

Incoming: For Nc1ccccc1C(=O)OC/C=C/c1ccccc1 , which call appears in the assay record?
Outgoing: inactive

Incoming: // return assay outcome for C[C@H]1O[C@@H](O[C@H]2[C@@H](O)C[C@H](O[C@H]3[C@@H](O)C[C@H](O[C@H]4CC[C@@]5(C)[C@H](CC[C@@H]6[C@@H]5CC[C@]5(C)[C@@H](C7=CC(=O)OC7)CC[C@]65O)C4)O[C@@H]3C)O[C@@H]2C)C[C@H](O)[C@@H]1O
Outgoing: inactive

Incoming: Dear colleague, could you share the recorded outcome for CN(C)CCc1c[nH]c2ccc(O)cc12 when you have a moment?
Outgoing: inactive

Incoming: Outcome logged for O=c1oc2ccccc2c(O)c1Cc1c(O)c2ccccc2oc1=O in this assay:
Outgoing: inactive

Incoming: So what was the verdict on O=S(=O)(c1ccc(Cl)cc1)c1ccc(Cl)cc1 in this test?
Outgoing: inactive

Incoming: # lookup: test call for CN(C)C1CSSSC1
Outgoing: inactive
